The molecules listed here are annotated with their IC50.
# assay_procedure: in vitro
# measurement_conditions: human, Cytotoxicity IC50

Sample records with IC50:
molecule="Cc1c(-c2ccc(O)cc2)n(Cc2ccc(OCCN3CCCCCC3)cc2)c2ccc(O)cc12 [Bazedoxifene]" readout_kind=IC50 result="43.2 µM"
molecule="CN1CCN(CCCN2c3ccccc3Sc3ccc(S(=O)(=O)N(C)C)cc32)CC1 [Thioproperazine]" readout_kind=IC50 result="> 500 µM"
molecule="CCN(CC)CCCN(c1ccccc1)C1Cc2ccccc2C1 [Aprindine]" readout_kind=IC50 result="> 500 µM"
molecule="COc1cc(Nc2c(C#N)cnc3cc(OCCCN4CCN(C)CC4)c(OC)cc23)c(Cl)cc1Cl [Bosutinib]" readout_kind=IC50 result="43.2 µM"
molecule="CC[C@@H]([C@H](C)O)n1ncn(-c2ccc(N3CCN(c4ccc(OC[C@@H]5CO[C@@](Cn6cncn6)(c6ccc(F)cc6F)C5)cc4)CC3)cc2)c1=O [Posaconazole]" readout_kind=IC50 result="> 500 µM"

Q: Hello, please tell me recorded IC50 for this one: C[C@H]1O[C@@H](O[C@H]2CC[C@@]3(C)[C@H](CC[C@@H]4[C@@H]3C[C@@H](O)[C@]3(C)[C@@H](C5=CC(=O)OC5)CC[C@]43O)C2)C[C@H](O)[C@@H]1O[C@H]1C[C@H](O)[C@H](O[C@H]2C[C@H](O)[C@H](O[C@@H]3O[C@H](CO)[C@@H](O)[C@H](O)[C@H]3O)[C@@H](C)O2)[C@@H](C)O1 [Deslanoside]
A: 250 µM

Q: Please report the measured IC50 for CCCCc1oc2ccc(NS(C)(=O)=O)cc2c1C(=O)c1ccc(OCCCN(CCCC)CCCC)cc1 [Dronedarone]
A: 48 µM

====

# Tested on: Ebola VLP entry into HeLa cells
# assay_procedure: microbe, parasite or virus in culture
# Assay type: cell-based, Ebola virus
# measurement_conditions: Zaire ebolavirus, HeLa, read-out: Block Ebola VLP entry Max. Inh.
# if measured Emax < 90%: 1.0  # else: 0.0

molecule="CC1CCCCN1CCCOC(=O)c1ccc(OC2CCCCC2)cc1 (stereo not drawn)" class_label=1.0
molecule=CCN(CC)Cc1cc(Nc2ccnc3cc(Cl)ccc23)ccc1O class_label=0.0
molecule="C[C@H]1O[C@@H](O[C@H]2CC[C@@]3(C)[C@H](CC[C@@H]4[C@@H]3C[C@@H](O)[C@]3(C)[C@@H](C5=CC(=O)OC5)CC[C@]43O)C2)C[C@H](O)[C@@H]1O[C@H]1C[C@H](O)[C@H](O[C@H]2C[C@H](O)[C@H](O[C@@H]3O[C@H](CO)[C@@H](O)[C@H](O)[C@H]3O)[C@@H](C)O2)[C@@H](C)O1 [Deslanoside]" class_label=1.0

Next molecule, please.
Q: Below 90% on Emax? Entry CCCCc1oc2ccc(NS(C)(=O)=O)cc2c1C(=O)c1ccc(OCCCN(CCCC)CCCC)cc1
A: 1.0

====

# assay_procedure: in vitro
# measurement_conditions: human, Cytotoxicity IC50
readout_kind: IC50

// solved cases for IC50 follow
compound=CC(C)C[C@H](NC(=O)[C@H](CCc1ccccc1)NC(=O)CN1CCOCC1)C(=O)N[C@@H](Cc1ccccc1)C(=O)N[C@@H](CC(C)C)C(=O)[C@@]1(C)CO1 readout_kind=IC50 result="> 500 µM"
compound="O=C(Nc1ccc([N+](=O)[O-])cc1Cl)c1cc(Cl)ccc1O [Niclosamide]" readout_kind=IC50 result="> 500 µM"
compound=CC[C@@]1(O)C(=O)OCc2c1cc1n(c2=O)Cc2cc3c(CN(C)C)c(O)ccc3nc2-1 readout_kind=IC50 result="> 500 µM"
compound=C[C@H]1O[C@@H](O[C@H]2[C@@H](O)C[C@H](O[C@H]3[C@@H](O)C[C@H](O[C@H]4CC[C@@]5(C)[C@H](CC[C@@H]6[C@@H]5C[C@@H](O)[C@]5(C)[C@@H](C7=CC(=O)OC7)CC[C@]65O)C4)O[C@@H]3C)O[C@@H]2C)C[C@H](O)[C@@H]1O readout_kind=IC50 result="250 µM"
compound="OCc1cc(C(O)CNCCCCCCOCCCCc2ccccc2)ccc1O (stereo not drawn)" readout_kind=IC50 result="> 500 µM"
compound="CCCN(CCC)C(=O)C(CCC(=O)OCCCN1CCN(CCOC(=O)Cc2c(C)n(C(=O)c3ccc(Cl)cc3)c3ccc(OC)cc23)CC1)NC(=O)c1ccccc1 (stereo not drawn)" readout_kind=IC50 result="> 500 µM"
compound=COC(=O)Nc1nc2ccc(C(=O)c3cccs3)cc2[nH]1 readout_kind=IC50 result="> 500 µM"
compound=CC[C@H]1OC(=O)[C@H](C)[C@@H](O[C@H]2C[C@@](C)(OC)[C@@H](O)[C@H](C)O2)[C@H](C)[C@@H](O[C@@H]2O[C@H](C)C[C@H](N(C)C)[C@H]2O)[C@](C)(OC)C[C@@H](C)C(=O)[C@H](C)[C@@H](O)[C@]1(C)O readout_kind=IC50 result="> 500 µM"

Now let's try a different one.
Q: Let me know recorded IC50 for CN1[C@@H]2CC[C@H]1C[C@@H](OC(c1ccccc1)c1ccccc1)C2 , thanks.
A: 250 µM
